Assay: AUC (0 to 8 hrs) in Sprague-Dawley rat at 4 mg/kg, iv
Type: ADME, organism-based
Parameters: time < 8 hr, dose 4 mg/kg, route intravenous
Conditions: in vivo
Quantity Name: AUC(0-t) at 8 h (µM·h)
Answers are plain numbers, in µM·h.

[in] Consider the compound shown here: COC(=O)N(CC(=O)O)Cc1cc(OCc2nc(-c3ccc(Cl)cc3)oc2C)ccc1F What is its recorded AUC(0-t) at 8 h?
[out] 9.4

----------
Molecular target: hERG (KCNH2) (Homo sapiens, UniProt Q12809)
Sequence (Q12809 whole entry): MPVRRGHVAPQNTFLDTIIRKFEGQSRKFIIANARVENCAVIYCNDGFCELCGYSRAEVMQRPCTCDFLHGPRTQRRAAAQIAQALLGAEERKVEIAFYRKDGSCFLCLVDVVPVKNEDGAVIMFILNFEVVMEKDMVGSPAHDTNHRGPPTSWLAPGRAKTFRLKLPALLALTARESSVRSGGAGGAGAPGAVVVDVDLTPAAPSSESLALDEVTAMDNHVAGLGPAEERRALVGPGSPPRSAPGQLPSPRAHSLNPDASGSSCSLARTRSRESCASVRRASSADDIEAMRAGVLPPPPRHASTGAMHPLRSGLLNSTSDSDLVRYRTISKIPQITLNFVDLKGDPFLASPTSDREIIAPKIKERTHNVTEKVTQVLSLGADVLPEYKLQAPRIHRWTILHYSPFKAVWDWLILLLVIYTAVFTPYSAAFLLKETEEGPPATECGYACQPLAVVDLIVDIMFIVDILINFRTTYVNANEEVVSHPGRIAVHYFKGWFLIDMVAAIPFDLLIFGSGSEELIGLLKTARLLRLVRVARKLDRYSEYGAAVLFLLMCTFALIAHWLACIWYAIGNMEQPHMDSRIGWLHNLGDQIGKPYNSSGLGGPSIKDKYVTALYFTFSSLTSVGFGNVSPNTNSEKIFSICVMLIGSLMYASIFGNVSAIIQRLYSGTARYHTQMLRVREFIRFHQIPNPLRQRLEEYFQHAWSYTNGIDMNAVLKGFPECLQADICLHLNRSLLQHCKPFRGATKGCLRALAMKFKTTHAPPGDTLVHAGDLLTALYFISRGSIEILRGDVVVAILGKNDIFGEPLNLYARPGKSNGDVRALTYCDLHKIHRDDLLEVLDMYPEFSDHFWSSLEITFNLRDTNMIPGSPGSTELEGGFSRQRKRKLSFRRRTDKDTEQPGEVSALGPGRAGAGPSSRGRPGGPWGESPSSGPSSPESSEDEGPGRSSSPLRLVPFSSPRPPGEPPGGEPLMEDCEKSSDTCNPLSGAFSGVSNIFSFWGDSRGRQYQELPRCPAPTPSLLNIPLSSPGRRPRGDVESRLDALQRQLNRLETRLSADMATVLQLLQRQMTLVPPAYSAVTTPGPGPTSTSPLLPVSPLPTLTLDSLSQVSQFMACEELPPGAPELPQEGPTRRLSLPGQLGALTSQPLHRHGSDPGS
Test: Inhibition of human ERG at 30 uM by patch-clamp method
Quantity Name: inhibition at 30 µM (%)
Numbers only, in %.

[in] For hERG (KCNH2) (Homo sapiens, UniProt Q12809), provide inhibition at 30 µM of COC(=O)N(CC(=O)O)Cc1cc(OCc2nc(-c3ccc(Cl)cc3)oc2C)ccc1F please.
[out] 4

----------
Experiment: Half life in Balb/c mouse at 5 mg/kg, iv
Assay type: ADME, organism-based
Conditions: in vivo
Quantity Name: half-life (h)
Answers are plain numbers, in h.

[in] Consider the molecule shown here: COC(=O)N(CC(=O)O)Cc1cc(OCc2nc(-c3ccc(Cl)cc3)oc2C)ccc1F What is its recorded half-life?
[out] 1.8

----------
Assay: Tmax in Balb/c mouse at 10 mg/kg, po
Format: ADME, organism-based
Conditions: in vivo
Quantity Name: Tmax (min)
Numbers only, in min.

[in] Consider the compound shown here: COC(=O)N(CC(=O)O)Cc1cc(OCc2nc(-c3ccc(Cl)cc3)oc2C)ccc1F What is its recorded Tmax?
[out] 15

----------
Target: Cytochrome P450 2C9 (Homo sapiens, UniProt P11712)
Sequence (P11712 whole entry): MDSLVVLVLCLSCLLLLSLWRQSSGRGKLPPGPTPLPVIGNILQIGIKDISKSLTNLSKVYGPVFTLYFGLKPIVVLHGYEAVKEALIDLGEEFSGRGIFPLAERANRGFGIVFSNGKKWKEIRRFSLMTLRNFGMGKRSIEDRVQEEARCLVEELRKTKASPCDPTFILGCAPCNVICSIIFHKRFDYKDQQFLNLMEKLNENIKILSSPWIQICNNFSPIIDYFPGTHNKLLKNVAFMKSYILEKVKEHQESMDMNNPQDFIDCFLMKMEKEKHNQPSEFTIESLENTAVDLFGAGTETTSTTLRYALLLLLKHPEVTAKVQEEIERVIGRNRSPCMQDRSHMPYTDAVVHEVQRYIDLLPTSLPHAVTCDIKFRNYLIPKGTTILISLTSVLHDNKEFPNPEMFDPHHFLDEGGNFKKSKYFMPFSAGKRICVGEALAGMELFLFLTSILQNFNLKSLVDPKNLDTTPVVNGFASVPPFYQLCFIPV
Experiment: Inhibition of CYP2C9 (unknown origin)
Format: ADME
pIC50: −log10 of the molar value.
Quantity Name: pIC50

[in] Consider the compound shown here: COC(=O)N(CC(=O)O)Cc1cc(OCc2nc(-c3ccc(Cl)cc3)oc2C)ccc1F What is its recorded pIC50?
[out] < 4.40

----------
Experiment: Plasma clearance in Sprague-Dawley rat at 4 mg/kg, iv
Format: ADME, organism-based
Quantity Name: clearance (mL/min/kg)
Give bare numbers, in mL/min/kg.

[in] Consider the molecule shown here: COC(=O)N(CC(=O)O)Cc1cc(OCc2nc(-c3ccc(Cl)cc3)oc2C)ccc1F What is its recorded clearance?
[out] 15.3

----------
Assay: AUC (0 to 8 hrs) in cynomolgus monkey at 2 mg/kg, po
Assay type: ADME, organism-based, Macaca fascicularis
Set-up: time < 8 hr, dose 2 mg/kg, route oral
Conditions: in vivo
Quantity Name: AUC(0-t) at 8 h (µM·h)
Answers are plain numbers, in µM·h.

[in] Consider the molecule shown here: COC(=O)N(CC(=O)O)Cc1cc(OCc2nc(-c3ccc(Cl)cc3)oc2C)ccc1F What is its recorded AUC(0-t) at 8 h?
[out] 8.5

----------
Test: Cmax in cynomolgus monkey at 2 mg/kg, po
Assay type: ADME, organism-based, Macaca fascicularis
Set-up: dose 2 mg/kg, route oral
Conditions: in vivo
Quantity Name: Cmax

[in] Consider the molecule shown here: COC(=O)N(CC(=O)O)Cc1cc(OCc2nc(-c3ccc(Cl)cc3)oc2C)ccc1F What is its recorded Cmax?
[out] 1400 nM

----------
Test: AUC (0 to 8 hrs) in Balb/c mouse at 5 mg/kg, iv
Assay type: ADME, organism-based
Design: dose 5 mg/kg, time < 8 hr, route intravenous
Settings: in vivo
Quantity Name: AUC(0-t) at 8 h

[in] Consider the compound shown here: COC(=O)N(CC(=O)O)Cc1cc(OCc2nc(-c3ccc(Cl)cc3)oc2C)ccc1F What is its recorded AUC(0-t) at 8 h?
[out] 13 µM·h

----------
Experiment: Protein binding in mouse plasma
Format: ADME, cell-free
Details: read-out: PPB (converted)
Quantity Name: fraction unbound

[in] Consider the compound shown here: COC(=O)N(CC(=O)O)Cc1cc(OCc2nc(-c3ccc(Cl)cc3)oc2C)ccc1F What is its recorded fraction unbound?
[out] 0.002

----------
Test: Volume of distribution at steady state in cynomolgus monkey at 1 mg/kg, iv
Type: ADME, organism-based, Macaca fascicularis
Conditions: in vivo, read-out: Vdss
Quantity Name: Vd

[in] Consider the compound shown here: COC(=O)N(CC(=O)O)Cc1cc(OCc2nc(-c3ccc(Cl)cc3)oc2C)ccc1F What is its recorded Vd?
[out] 3.9 L/kg

----------
Test: Half life in cynomolgus monkey at 1 mg/kg, iv
Assay type: ADME, organism-based, Macaca fascicularis
Conditions: in vivo
Quantity Name: half-life (h)
One number for each entry, in h.

[in] Consider the compound shown here: COC(=O)N(CC(=O)O)Cc1cc(OCc2nc(-c3ccc(Cl)cc3)oc2C)ccc1F What is its recorded half-life?
[out] 26.3

----------
Target: Cytochrome P450 2B6 (Homo sapiens, UniProt P20813)
Sequence (P20813 whole entry): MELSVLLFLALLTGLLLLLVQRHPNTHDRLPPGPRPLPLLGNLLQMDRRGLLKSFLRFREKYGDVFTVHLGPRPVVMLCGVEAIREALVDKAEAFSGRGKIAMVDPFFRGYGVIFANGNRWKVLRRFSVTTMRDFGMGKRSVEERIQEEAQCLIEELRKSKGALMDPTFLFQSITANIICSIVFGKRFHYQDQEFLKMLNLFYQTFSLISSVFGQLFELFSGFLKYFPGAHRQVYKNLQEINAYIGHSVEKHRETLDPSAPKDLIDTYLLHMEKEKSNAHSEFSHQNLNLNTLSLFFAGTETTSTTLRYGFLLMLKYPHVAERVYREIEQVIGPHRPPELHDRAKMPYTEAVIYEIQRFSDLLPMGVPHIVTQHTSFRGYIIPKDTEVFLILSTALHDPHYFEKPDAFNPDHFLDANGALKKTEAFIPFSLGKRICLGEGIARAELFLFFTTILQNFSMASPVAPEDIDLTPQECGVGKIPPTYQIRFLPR
pIC50: −log10 of the molar value.
Quantity Name: pIC50

[in] For Cytochrome P450 2B6 (Homo sapiens, UniProt P20813), provide pIC50 of COC(=O)N(CC(=O)O)Cc1cc(OCc2nc(-c3ccc(Cl)cc3)oc2C)ccc1F please.
[out] < 4.40

----------
Assay: Protein binding in cynomolgus monkey plasma
Format: ADME, cell-free, Macaca fascicularis
Conditions: read-out: PPB
Quantity Name: fraction unbound
Numbers only.

[in] Consider the compound shown here: COC(=O)N(CC(=O)O)Cc1cc(OCc2nc(-c3ccc(Cl)cc3)oc2C)ccc1F What is its recorded fraction unbound?
[out] 0.01

----------
Target: Cytochrome P450 2D6 (Homo sapiens, UniProt P10635)
Sequence (P10635 whole entry): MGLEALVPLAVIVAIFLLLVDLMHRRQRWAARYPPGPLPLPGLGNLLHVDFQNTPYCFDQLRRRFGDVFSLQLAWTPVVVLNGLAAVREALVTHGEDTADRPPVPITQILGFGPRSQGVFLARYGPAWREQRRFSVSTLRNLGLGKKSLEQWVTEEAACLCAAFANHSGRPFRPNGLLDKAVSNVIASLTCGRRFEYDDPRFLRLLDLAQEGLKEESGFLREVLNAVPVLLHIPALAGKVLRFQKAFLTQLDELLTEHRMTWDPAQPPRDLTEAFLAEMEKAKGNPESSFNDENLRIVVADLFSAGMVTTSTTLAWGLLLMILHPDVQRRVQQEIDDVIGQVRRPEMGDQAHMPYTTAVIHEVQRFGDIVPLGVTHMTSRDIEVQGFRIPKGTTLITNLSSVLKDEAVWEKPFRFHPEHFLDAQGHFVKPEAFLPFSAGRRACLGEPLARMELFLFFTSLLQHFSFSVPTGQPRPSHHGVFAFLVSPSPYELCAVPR
Test: Inhibition of CYP2D6 (unknown origin)
Type: ADME
Quantity Name: IC50

[in] Consider the compound shown here: COC(=O)N(CC(=O)O)Cc1cc(OCc2nc(-c3ccc(Cl)cc3)oc2C)ccc1F What is its recorded IC50?
[out] > 40 µM

----------
Assay: AUC (0 to 8 hrs) in Sprague-Dawley rat at 8 mg/kg, po
Assay type: ADME, organism-based
Parameters: time < 8 hr, dose 8 mg/kg, route oral
Conditions: in vivo
Quantity Name: AUC(0-t) at 8 h (µM·h)
Answers are plain numbers, in µM·h.

[in] Consider the compound shown here: COC(=O)N(CC(=O)O)Cc1cc(OCc2nc(-c3ccc(Cl)cc3)oc2C)ccc1F What is its recorded AUC(0-t) at 8 h?
[out] 32

----------
Assay: Volume of distribution at steady state in Sprague-Dawley rat at 4 mg/kg, iv
Assay type: ADME, organism-based
Settings: in vivo, read-out: Vdss
Quantity Name: Vd (L/kg)
One number for each entry, in L/kg.

[in] Consider the compound shown here: COC(=O)N(CC(=O)O)Cc1cc(OCc2nc(-c3ccc(Cl)cc3)oc2C)ccc1F What is its recorded Vd?
[out] 2.2

----------
Biological target: Cytochrome P450 2C19 (Homo sapiens, UniProt P33261)
Sequence (P33261 whole entry): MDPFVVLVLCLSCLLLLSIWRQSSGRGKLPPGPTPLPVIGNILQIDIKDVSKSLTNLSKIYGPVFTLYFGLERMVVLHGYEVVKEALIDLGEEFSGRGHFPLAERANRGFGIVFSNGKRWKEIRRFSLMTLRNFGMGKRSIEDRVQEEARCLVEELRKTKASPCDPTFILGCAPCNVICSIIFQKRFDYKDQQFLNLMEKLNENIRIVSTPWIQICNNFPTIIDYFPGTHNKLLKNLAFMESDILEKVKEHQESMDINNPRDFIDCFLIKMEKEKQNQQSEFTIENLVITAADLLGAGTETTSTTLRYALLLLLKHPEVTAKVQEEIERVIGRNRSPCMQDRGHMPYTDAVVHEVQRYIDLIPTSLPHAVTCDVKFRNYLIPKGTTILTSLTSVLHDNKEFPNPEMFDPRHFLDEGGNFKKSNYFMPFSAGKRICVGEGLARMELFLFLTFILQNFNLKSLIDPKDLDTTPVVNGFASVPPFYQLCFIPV
Test: Inhibition of CYP2C19 in human TC5 cells
Format: ADME, cell-based
Quantity Name: IC50

[in] Consider the compound shown here: COC(=O)N(CC(=O)O)Cc1cc(OCc2nc(-c3ccc(Cl)cc3)oc2C)ccc1F What is its recorded IC50?
[out] > 150 µM

----------
Test: AUC (0 to 8 hrs) in dog at 1 mg/kg, iv
Assay type: ADME, organism-based, Canis lupus familiaris
Set-up: dose 1 mg/kg, time < 8 hr, route intravenous
Conditions: in vivo
Quantity Name: AUC(0-t) at 8 h (µM·h)
One number for each entry, in µM·h.

[in] Consider the molecule shown here: COC(=O)N(CC(=O)O)Cc1cc(OCc2nc(-c3ccc(Cl)cc3)oc2C)ccc1F What is its recorded AUC(0-t) at 8 h?
[out] 3.5

----------
Experiment: Oral bioavailability in Sprague-Dawley rat at 8 mg/kg
Type: ADME, organism-based
Details: in vivo
Quantity Name: bioavailability (%)
Answers are plain numbers, in %.

[in] Consider the molecule shown here: COC(=O)N(CC(=O)O)Cc1cc(OCc2nc(-c3ccc(Cl)cc3)oc2C)ccc1F What is its recorded bioavailability?
[out] 100

----------
Assay: Cmax in dog at 2 mg/kg, po
Assay type: ADME, organism-based, Canis lupus familiaris
Parameters: dose 2 mg/kg, route oral
Settings: in vivo
Quantity Name: Cmax (nM)
Answers are plain numbers, in nM.

[in] Consider the compound shown here: COC(=O)N(CC(=O)O)Cc1cc(OCc2nc(-c3ccc(Cl)cc3)oc2C)ccc1F What is its recorded Cmax?
[out] 1500

----------
Biological target: Cytochrome P450 3A4 (Homo sapiens)
Sequence (P08684 whole entry): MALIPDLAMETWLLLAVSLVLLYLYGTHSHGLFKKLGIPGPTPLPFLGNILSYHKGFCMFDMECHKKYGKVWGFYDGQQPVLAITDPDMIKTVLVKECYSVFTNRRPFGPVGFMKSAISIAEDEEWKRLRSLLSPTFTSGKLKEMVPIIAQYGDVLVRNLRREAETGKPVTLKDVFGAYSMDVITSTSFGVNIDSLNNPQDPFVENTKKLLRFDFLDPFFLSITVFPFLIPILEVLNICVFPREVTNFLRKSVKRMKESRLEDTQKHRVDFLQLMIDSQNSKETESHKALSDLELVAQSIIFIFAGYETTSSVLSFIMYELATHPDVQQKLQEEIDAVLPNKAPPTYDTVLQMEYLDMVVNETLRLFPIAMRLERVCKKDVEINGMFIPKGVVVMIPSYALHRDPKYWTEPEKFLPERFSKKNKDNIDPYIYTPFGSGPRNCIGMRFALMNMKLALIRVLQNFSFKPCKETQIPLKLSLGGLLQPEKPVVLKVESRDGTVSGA
Test: Inhibition of CYP3A4 in human TC5 cells
Format: ADME, cell-based
Quantity Name: IC50

[in] Consider the compound shown here: COC(=O)N(CC(=O)O)Cc1cc(OCc2nc(-c3ccc(Cl)cc3)oc2C)ccc1F What is its recorded IC50?
[out] > 150 µM

----------
Test: Aqueous solubility of the compound at pH 7.2
Assay type: physicochemical
Conditions: buffer
Quantity Name: solubility (µg/mL)
One number for each entry, in µg/mL.

[in] Consider the molecule shown here: COC(=O)N(CC(=O)O)Cc1cc(OCc2nc(-c3ccc(Cl)cc3)oc2C)ccc1F What is its recorded solubility?
[out] 367
